Reference for the values: paper PMC5915154

Reported values of IC50 for individual entries
# Tested on: multidrug-resistant P-glycoprotein-overexpressing CEM/ADR5000 leukemia cells
# experiment: Resazurin reduction assay, CEM/ADR5000
# Type: cell-based, human
# recorded.conditions: Homo sapiens; CEM/ADR5000, resazurin assay, 72 h
Return type: number; implicit unit µM.

Some entries whose results are on file:
INSERT INTO assay_data (compound, assay_metric, quantitative_readout) VALUES
  ('COc1cccc2c1C(=O)c1c(O)c3c(c(O)c1C2=O)C[C@@](O)(C(=O)CO)C[C@@H]3O[C@H]1C[C@H](N)[C@H](O)[C@H](C)O1 [doxorubicin, Doxorubicin, reference compound]', 'IC50', 11),
  ('COc1cc(O)c2c(c1)C(=O)c1cc(C)cc(O)c1C2=O', 'IC50', 74.8),
  ('O=C1c2cccc(O)c2C(=O)c2c(O)cc(CO)cc21', 'IC50', 12.8),
  ('O=C(O)c1cc(O)c2c(c1)C(=O)c1cccc(O)c1C2=O', 'IC50', 46.9);

Moving on to another compound below.
Enquiry: Supply recorded IC50 for "Cc1cc(O)c2c(c1)C(=O)c1cc(O)cc(O)c1C2=O" here.
Return: 35.3
